test system: UO-31 renal; assay: NCI tumour cell line growth inhibition, 48 h
assay metric: log10 TGI (log10 of the value in µM)
Use the decimal logarithm of TGI (µM).

Reference set, count: 3
- molecule: "Cc1nc2ccc(C(F)(F)F)cc2nc1NCc1ccc(Cl)c(Cl)c1"
  endpoint value: 1.48
- molecule: "C[N+](C)(C)CC1CCCC1=O (stereo unspecified)"
  endpoint value: 0.94
- molecule: "CCN(CC)CCCCCCNc1cc(OC)cc2cccnc12"
  endpoint value: 1.47

Working through the 4 molecules below one at a time, give log10 TGI for each.
1. O=C(/C=C/c1cccc(O)c1)c1cccc(-n2cc(-c3ccccc3)[nH]c2=O)c1
2. COc1cc2c(cc1OCCCCN1CCN(C(=S)SCCC(C#N)(c3ccccc3)c3ccccc3)CC1)N=C[C@@H]1CCCN1C2=O
3. CCN(CC)c1ccc2c(c1)Oc1ccc(N(CC)CC)cc1C21Oc2ccccc2-c2c1c1ccccc1n2CC (stereo unspecified)
4. O=S(=O)(c1cccc(N=C=S)c1)c1cccc(N=C=S)c1

Result ::
[0.85, 0.32, 1.80, 1.88]
